Measured On: Recombinant human Factor IX (rhFIX, Genetics Institute) (human, UniProt P00740 47-461)
Sequence (P00740 47-461 limits assumed): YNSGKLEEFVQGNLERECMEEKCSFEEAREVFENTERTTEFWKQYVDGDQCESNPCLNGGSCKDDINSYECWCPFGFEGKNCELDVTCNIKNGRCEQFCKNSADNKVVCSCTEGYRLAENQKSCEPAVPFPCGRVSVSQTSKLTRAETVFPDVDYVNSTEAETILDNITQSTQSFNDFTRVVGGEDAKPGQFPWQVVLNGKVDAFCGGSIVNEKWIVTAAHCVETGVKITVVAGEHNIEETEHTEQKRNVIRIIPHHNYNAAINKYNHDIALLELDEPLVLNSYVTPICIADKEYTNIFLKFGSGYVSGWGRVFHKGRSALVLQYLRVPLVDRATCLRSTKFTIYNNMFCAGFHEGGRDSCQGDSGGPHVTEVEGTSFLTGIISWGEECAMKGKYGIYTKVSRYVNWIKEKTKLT
Test Name: SPR (BIAcore), antibody bound to immobilized protein A, Factor IX in solution
Kindly supply the reported log10(koff) values for the records listed here.
Heads up, the numbers here are log10 of koff in s⁻¹ units.

q: Entry under review: mouse-human chimeric anti-Factor IX monoclonal antibody chαFIX (antibody, V domains shown, BC2 variable regions with human constant regions; also called Chf9; F9CHHC / F9CHLC) VH: QIQLVQSGPELKKPGETVKISCKASGYTFTNYGMNWVKQAPGKGLKWMGWINTRNGKSTYVDDFKGRFAFSLESSASTANLQIDNLKDEDTATYFCTREGNMDGYFPFTYWGQGTLVTVSA VL: QIVLSQSPAILSASPGEKVTMTCRASSSVNYMHWYQQKPGSSPKPWIYATSNLASGVPARFSGSGSGTSYSLTISRVEAEDAATYYCQQWSINPRTFGGGTKLEIK . Reported log10(koff)?
a: -3.52

q: Entry under review: humanized anti-human Factor IX monoclonal antibody SB 257732 (antibody, human IgG1, V domains shown, Human IgG1 and kappa constant regions from the vectors; also called F9HZHC 3-0 / F9HZLC 3-0) VH: QIQLVQSGSELKKPGASVKVSCKASGYTFTNYGMNWVRQAPGQGLEWMGWINTRNGKSTYVDDFKGRFVFSLDTSVSTAYLQISSLKAEDTAVYFCTREGNMDGYFPFTYWGQGTLVTVSS VL: QIVLTQSPSSLSASVGDRVTITCRASSSVNYMHWYQQKPGKAPKPWIYATSNLASGVPSRFSGSGSGTDYTLTISSLQPEDFATYYCQQWSINPRTFGGGTKLEIKR . Reported log10(koff)?
a: -2.92

q: Entry under review: humanized anti-human Factor IX monoclonal antibody SB 249413 (antibody, human IgG1, V domains shown, also called F9HZHC 1-0 / F9HZLC 1-0) VH: QVQLVQSGSELKKPGASVKVSCKASGYTFTNYGMNWVRQAPGQGLEWMGWINTRNGKSTYVDDFKGRFVFSLDTSVSTAYLQISSLKADDTAVYYCAREGNMDGYFPFTYWGQGTLVTVSS VL: EIVLTQSPATLSLSPGERATLSCRASSSVNYMHWYQQRPGQAPRLLIYATSNLASGIPARFSGSGSGTDFTLTISSLEPEDFAVYYCQQWSINPRTFGGGTKVEIKR . Reported log10(koff)?
a: -2.55

q: Entry under review: murine anti-Factor IX monoclonal antibody BC2 (antibody, mouse IgG2a, V domains shown, also called BC2 mAb; BC2 Antibody) VH: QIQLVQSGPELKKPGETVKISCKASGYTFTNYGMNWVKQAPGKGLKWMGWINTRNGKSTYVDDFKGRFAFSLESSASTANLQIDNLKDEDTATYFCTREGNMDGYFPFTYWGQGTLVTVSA VL: QIVLSQSPAILSASPGEKVTMTCRASSSVNYMHWYQQKPGSSPKPWIYATSNLASGVPARFSGSGSGTSYSLTISRVEAEDAATYYCQQWSINPRTFGGGTKLEIKR . Reported log10(koff)?
a: -3.04

q: Entry under review: humanized anti-human Factor IX monoclonal antibody SB 249416 (antibody, human IgG1, V domains shown, Human IgG1 and kappa constant regions from the vectors; also called F9HZHC 1-1 / F9HZLC 1-2) VH: QVQLVQSGSELKKPGASVKVSCKASGYTFTNYGMNWVRQAPGQGLKWMGWINTRNGKSTYVDDFKGRFVFSLDSSVSTAYLQISSLKADDTAVYYCTREGNMDGYFPFTYWGQGTLVTVSS VL: EIVLTQSPATLSLSPGERATLSCRASSSVNYMHWYQQRPGQAPKPWIYATSNLASGVPARFSGSGSGTDYTLTISSLEPEDFAVYYCQQWSINPRTFGGGTKVEIKR . Reported log10(koff)?
a: -3.39

q: Entry under review: humanized anti-human Factor IX monoclonal antibody SB 257731 (antibody, human IgG1, V domains shown, Human IgG1 and kappa constant regions from the vectors; also called F9HZHC 1-1 / F9HZLC 1-3) VH: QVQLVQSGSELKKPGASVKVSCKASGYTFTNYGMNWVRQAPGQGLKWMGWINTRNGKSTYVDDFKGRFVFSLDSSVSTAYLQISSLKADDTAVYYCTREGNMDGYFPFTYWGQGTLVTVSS VL: QIVLTQSPATLSLSPGERATLSCRASSSVNYMHWYQQRPGQAPKPWIYATSNLASGVPARFSGSGSGTDYTLTISSLEPEDFAVYYCQQWSINPRTFGGGTKVEIK . Reported log10(koff)?
a: -3.00

q: Entry under review: humanized anti-human Factor IX monoclonal antibody SB 249415 (antibody, human IgG1, V domains shown, Human IgG1 and kappa constant regions from the vectors; also called F9HZHC 1-1 / F9HZLC 1-1) VH: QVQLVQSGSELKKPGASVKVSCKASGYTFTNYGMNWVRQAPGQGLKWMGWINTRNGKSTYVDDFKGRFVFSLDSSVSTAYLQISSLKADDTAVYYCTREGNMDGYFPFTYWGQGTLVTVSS VL: EIVLTQSPATLSLSPGERATLSCRASSSVNYMHWYQQRPGQAPKPWIYATSNLASGVPARFSGSGSGTDFTLTISSLEPEDFAVYYCQQWSINPRTFGGGTKVEIKR . Reported log10(koff)?
a: -3.74
